protein stability index values for the variants below.
B1: BRF1 (parent)
chain: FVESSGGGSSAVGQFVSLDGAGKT

Variants of: B1
protocol details: protein stability index of a GFP-peptide fusion (GPS, HEK-293T) (PSI 1-6); higher = more stable;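 also: lentivirally expressed fusions sorted by FACS into six bins by GFP to DsRed ratio, PSI derived from sequencing read proportions per bin multiplied by bin number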
details: c terminus: a fixed tail appended

{"mutant code": "G7R", "protein stability index": 1.38}
{"mutant code": "K23A", "protein stability index": 2.04}
{"mutant code": "F1L", "protein stability index": 4.89}
{"mutant code": "F1C", "protein stability index": 4.65}

Query: Look up and report measured protein stability index for this entry: G20R
Reply: 2.32

Query: Look up and report measured protein stability index for this entry: T24Q
Reply: 2.86

Source of measurements: the supplement of paper PMC10567573
